experiment: yeast display, Sf9 membrane polyspecificity reagent, FACS + sequencing; frameworks hold sequencing errors
recorded_metric: polyreactivity (PSR sort gate)

Recorded results for 8 sequences are shown here.
QVQLVESGGGLVQAGGSLRLSCAASGRIFLGNAMGWYRQAPGKERELVAAITNGGGSTYYADSVKGRFTISRDTAKNTVYLQMNSLKPEDTAVYYCARGYKKSVQRFEYWGQGTQVTVSS: high polyreactivity
QVQLVESGGGLVQAGGSLRLSCAASGSIFWYYVMGWYRQAPGKERELVAAITFSGAGTYYADSVKGRFTISRDNAKNTVYLQMNSLKPEDTAVYYCAARWLGHFYPFFLQGLSGFDYWGQGTQVTVSS: low polyreactivity
QVQLVESGGGLVQAGGSLRLSCAPSGSTLNVYAMGWYRQAPGKERELVAAIRWSGDTYYADSVKGRFTISRDNAKNTVYLQMNSLKPEDTAVYYCAADPGTTYWQRFDYWGQGTQVTVSS: low polyreactivity
QVQLVESGGGLVQAGGSLRLSCAASGRIFGIYAMGWYRQAPGKERELVAAISYSGGSTYYADSVKGRFTISRDNAKNTVYLQMNSMKPEDTAVYYCNADYYASYYPYYSIRLDYWGQGTQVTVSS: low polyreactivity
QVQLVESGGGLVQAGGSLRLSCAASGIILAFNAMGWYRQAPGKEREFVASISQGGSSTYYADSVKGRFTISRDYAKNTVYLQMNSLKPEVTAVYFCAARSSRVRSPYQRYYYWGQGTQVTVSS: high polyreactivity
QVQLVESGGGLVQAGGSLRLTCAASGSIFSYNAKGRYRQAPGKERELVAGITTGDSTNYADSVKGRFTISRDNAKNTVYLQMNCLKPEDTAVYYCAATRLVSYHYPDLDSQQGGYWGQGTQVTVSS: low polyreactivity
QVQLVESGGGLVQAGGSLRLSCAASGRIFQGYAMGWYRQAPGKERELLAAITVRCGTTYYADSVKGRFTISRDNAKNTVYLQMNSLKPEDTAVYYCNAAKLIHGYQSVYPGSNSRYYYWGQGTQVTVSS: low polyreactivity
QVQLVESGGGLVQAGGSLRLSCAASGFIFDIYAMGGYRPAPGKERELVAAISSGGSTNYADSVKGRFTISRDNAKNTVYLQMNSLKPEDTAVYYCAADRSDLAEEGYAGYDYWGQGTQVTVSS: low polyreactivity

GET /value?item= `QVQLVESGGGLVQAGGSLRLSCAASGFTFYTYVMGWYIQAPGKERELVAAITSGVYTNYADSVKGRFTISRDNAKNTVDLQMKSLKPEDTAVYYCNKDVRQAYRWYDSWGQDTQVTVSS` &field=polyreactivity (PSR sort gate) returns low polyreactivity

polyreactivity (PSR sort gate) reported for this sequence `QVQLVESGGGLVQAGGSLRLSCAASGSTLWYNAMGWYRQAPGKERELVATITAGGGSTYYADSVKGRFTISRDNAKNTVYLQMNSLKPEDTAVYYCATRRSRGPWYRNAYDYWGQGTQVTVSS` : low polyreactivity

polyreactivity (PSR sort gate) reported for this sequence `QVQLVESGGGLVQAGGSLRLSCAASGIIFTWYAMGWYRQAPGKERELVAAITSGNTYYADSVKGRFTISRDNAKNTVYLQMNSLKPEDTAVYYCNAVYSYTDEYDYWGQGTQVTVSS` : high polyreactivity

// field: polyreactivity (PSR sort gate); key: `QVQLVESGGGLVQAGGSLRLSCAASGLTFPYYVMGWYIQAPGKERELVAAIDDGGGSTYYADSVKGRFTISRDNAKNTVYLQMNSLKPEDTAVYYCAAQVDYLAHYGYWGQGTQVTVSS` ; value = low polyreactivity

Lab note: `QVQLVESGGGLVQAGGSLRLSCAASGSIFPGNAMRWYRQAPGKERELVATITWSGGSTYYADSVKGRFTISRDNAKNTVYLQINSLKPEDTAVYYCNADSNWYYQWNYYGLYDYWGQGTQVTVSS` gave polyreactivity (PSR sort gate) of low polyreactivity

Field polyreactivity (PSR sort gate) (entry `QVQLVESGGGLVQAGGSLRLSCAASGFTFTSYAMGWYRQAPGKERELVAAITWDGGRTYYADSVKGRFTISRDNSKNTVYLQMNSLKPEDTAVYYCAKVYNPRQYDYWGQGTQVTVSS` ) reads low polyreactivity

The sequence `QVQLVESGGGLVQAGGSLRLSCAASGRTFSYYAMGWYRQAPGKERELVAAISSGDSTYYADSVKGRFTFSRDNAMNTVYLQMNSLKPEDTAVYYCASYPSLYYTKYDYWGQGTQVTVSS` showed polyreactivity (PSR sort gate) equal to high polyreactivity

# polyreactivity (PSR sort gate) of `QVQLVESGGGLVQAGGSLRLSCAASGIILQSYTMGWYRQAPGKERELVAALTKSGGRTYYADSVKGRFTISRDNAKNTVYLQMNSLKPEDTAVYYCAAPLSYSYDYSGQGTQVTVSS` = high polyreactivity

Summary for this sequence, `QVQLVESGGGLVQAGGSLRLSCAASGSTFSQYAMGWYRQAPGKERELVAAITGSTGSTYYADSVKGRFTISRDNAKNTVYLQMNSLKPEDTAVYYCAAVSSNARHVSRRRGYYWGQGTQVTVSS` : polyreactivity (PSR sort gate) is high polyreactivity

Recorded polyreactivity (PSR sort gate) (sequence `QVQLVESGGGLVQAGCSLRLSCAACGSIFGPYSMGWYRQAPAKEREFVAAISRSGTSTNYADSVKGRFTISRDNAKNTVYLQMNSLKPEDTAVYYCATAAFIVGSSRTYDYWGQGTQVTVSS` ): high polyreactivity

Reported polyreactivity (PSR sort gate) for `QVQLVESGGGLVQAGGSLRLSCAASGNIFPAYAMGWYRQAPGKERELVATISRRGGGTYYADSVKGRFTISRDNAKNTVYLQMNSLKPEDTAVYYCNVAGWTSAYDYWGQGTQVTVSS` was low polyreactivity

Lab book: polyreactivity (PSR sort gate) of `QVQLVESGGGLVQAGGSLRLSCAASGSTFTYYAMGWYRQARGKERELVAAISSGGSTYYADSVKGRFTISRDNAKNTDYLQMNSLKPEDTAVYYCAARGYYGKFSGTGYWGQGTQVTVSS` noted as high polyreactivity

Per the record, `QVQLVESGGGLVQAGGSLRLSCAASGNTFTWYTIGWYRQAPGKERELVAVITSDGSTYYADSVKGRFTISRDNAKNTVYLQMNSLKPEDTAVYYCNALSADWYPEVDYWGQGTQVTVSS` has polyreactivity (PSR sort gate) of low polyreactivity

Values compiled from the nanobody polyreactivity screen of Harvey et al. (2022).
